# TEST_SYSTEM: Cyclin-dependent kinase 2/cyclin A (Homo sapiens, UniProt P24941)
# RUN_DESCRIPTION: Inhibition of CDK2/cyclin A
# Assay type: protein-complex assay
Assign labels as follows, please: true (1) for IC50 below 20 nM; false (0) for IC50 equal to or exceeding 20 nM.

> print(dat)
                                 cpd.smiles  assigned.label
1  NC(=O)c1cn(-c2ccccn2)c2c1CCc1cnc(NC3CCCC3)nc1-2       false (0)
2  COc1cccc(CNc2ncc3c(n2)-c2c(c(C(N)=O)cn2C)CC3)c1       false (0)
3  Cn1cc(C(N)=O)c2c1-c1nc(NCc3cccnc3)ncc1CC2       false (0)
4       Cn1cc(C(N)=O)c2c1-c1nc(NCCO)ncc1CC2        true (1)
5  CNC(=O)c1cn(C)c2c1CCc1cnc(NC3CCCC3)nc1-2       false (0)
6  CN1CCC(n2cc(C(N)=O)c3c2-c2nc(NC4CCCC4)ncc2CC3)CC1        true (1)

====

# TEST_SYSTEM: Cyclin-dependent kinase 2/cyclin A (Homo sapiens, UniProt P24941)
# RUN_DESCRIPTION: Inhibition of CDK2/cyclin A
Overview of recorded IC50 for various compounds
REPORTED_PROPERTY: IC50 (nM)

> print(dat)
                                    compound  value.units  result.value
 1  COc1ccc(CNc2ncc3c(n2)-c2c(c(C(N)=O)cn2C)CC3)cc1           nM          57.9
 2  CNC(=O)c1cn(C)c2c1C(C)(C)Cc1cnc(Nc3cccc(N(C)C)c3)nc1-2           nM           220
 3  Cn1cc(C(N)=O)c2c1-c1nc(NCc3ccncc3)ncc1CC2           nM            21
 4  Cn1cc(C(N)=O)c2c1-c1nc(Nc3ccccc3)ncc1CC2(C)C           nM            24
 5  CNC(=O)c1cn(C)c2c1CCc1cnc(NC3CCN(C)CC3)nc1-2           nM          4580
 6  NC(=O)c1cn(CCO)c2c1CCc1cnc(NC3CCCC3)nc1-2           nM             8
 7  CNC(=O)c1cn(C)c2c1C(C)(C)Cc1cnc(Nc3cccc(N4CCOCC4)c3)nc1-2           nM           248
 8  CN1CCN(c2ccc(Nc3ncc4c(n3)-c3c(c(C(N)=O)cn3C)CC4)cc2)CC1           nM             2
 9  NC(=O)c1cn(CC(F)(F)F)c2c1CCc1cnc(NC3CCCC3)nc1-2           nM             5
10  CNC(=O)c1cn(C)c2c1C(C)(C)Cc1cnc(Nc3cccc(OC4CCN(C)CC4)c3)nc1-2           nM            47
11  CNC(=O)c1cn(C2CCN(C)CC2)c2c1CCc1cnc(NC3CCCC3)nc1-2           nM            59
12  CN1CCN(c2cccc(Nc3ncc4c(n3)-c3c(c(C(N)=O)cn3C)CC4)c2)CC1           nM             1
13  CC(CN(C)C)NC(=O)c1cn(C)c2c1CCc1cnc(NC3CCCC3)nc1-2 (stereo not given)           nM          1760
14  Cn1cc(C(N)=O)c2c1-c1nc(NCc3ccc(Br)cc3)ncc1CC2           nM          80.9
15  CC(=O)Nc1ccc(CNc2ncc3c(n2)-c2c(c(C(N)=O)cn2C)CC3)cc1           nM            13
16  CNC(=O)c1cn(C)c2c1C(C)(C)Cc1cnc(Nc3ccc(OC4CCN(C)CC4)cc3)nc1-2           nM            29
17  CNC(=O)c1cn(C)c2c1C(C)(C)Cc1cnc(Nc3cccc(CN4CCN(C)CC4)c3)nc1-2           nM            59
18  Cn1cc(C(N)=O)c2c1-c1nc(NCCN3CCOCC3)ncc1CC2           nM           209
19  NC(=O)c1cn(-c2ccc(S(N)(=O)=O)cc2)c2c1CCc1cnc(NC3CCCC3)nc1-2           nM             5
20  CCOC(=O)N1CCC(Nc2ncc3c(n2)-c2c(c(C(N)=O)cn2C)CC3)CC1           nM             1
